Consider the following compounds; for each one, report its DC50.
biological target: BRM (Homo sapiens, UniProt P51531); construct: In-Cell Western Screen of BRM Degradation in SW1573 Cells; endogenous in cells; host or cells: SW1573; assay: In-cell Western screen of BRM degradation in SW1573 cells (Dmax and DC50); type: cell-based; settings: degradation of BRM; read-out: BRM DC50
Sequence (P51531 whole entry): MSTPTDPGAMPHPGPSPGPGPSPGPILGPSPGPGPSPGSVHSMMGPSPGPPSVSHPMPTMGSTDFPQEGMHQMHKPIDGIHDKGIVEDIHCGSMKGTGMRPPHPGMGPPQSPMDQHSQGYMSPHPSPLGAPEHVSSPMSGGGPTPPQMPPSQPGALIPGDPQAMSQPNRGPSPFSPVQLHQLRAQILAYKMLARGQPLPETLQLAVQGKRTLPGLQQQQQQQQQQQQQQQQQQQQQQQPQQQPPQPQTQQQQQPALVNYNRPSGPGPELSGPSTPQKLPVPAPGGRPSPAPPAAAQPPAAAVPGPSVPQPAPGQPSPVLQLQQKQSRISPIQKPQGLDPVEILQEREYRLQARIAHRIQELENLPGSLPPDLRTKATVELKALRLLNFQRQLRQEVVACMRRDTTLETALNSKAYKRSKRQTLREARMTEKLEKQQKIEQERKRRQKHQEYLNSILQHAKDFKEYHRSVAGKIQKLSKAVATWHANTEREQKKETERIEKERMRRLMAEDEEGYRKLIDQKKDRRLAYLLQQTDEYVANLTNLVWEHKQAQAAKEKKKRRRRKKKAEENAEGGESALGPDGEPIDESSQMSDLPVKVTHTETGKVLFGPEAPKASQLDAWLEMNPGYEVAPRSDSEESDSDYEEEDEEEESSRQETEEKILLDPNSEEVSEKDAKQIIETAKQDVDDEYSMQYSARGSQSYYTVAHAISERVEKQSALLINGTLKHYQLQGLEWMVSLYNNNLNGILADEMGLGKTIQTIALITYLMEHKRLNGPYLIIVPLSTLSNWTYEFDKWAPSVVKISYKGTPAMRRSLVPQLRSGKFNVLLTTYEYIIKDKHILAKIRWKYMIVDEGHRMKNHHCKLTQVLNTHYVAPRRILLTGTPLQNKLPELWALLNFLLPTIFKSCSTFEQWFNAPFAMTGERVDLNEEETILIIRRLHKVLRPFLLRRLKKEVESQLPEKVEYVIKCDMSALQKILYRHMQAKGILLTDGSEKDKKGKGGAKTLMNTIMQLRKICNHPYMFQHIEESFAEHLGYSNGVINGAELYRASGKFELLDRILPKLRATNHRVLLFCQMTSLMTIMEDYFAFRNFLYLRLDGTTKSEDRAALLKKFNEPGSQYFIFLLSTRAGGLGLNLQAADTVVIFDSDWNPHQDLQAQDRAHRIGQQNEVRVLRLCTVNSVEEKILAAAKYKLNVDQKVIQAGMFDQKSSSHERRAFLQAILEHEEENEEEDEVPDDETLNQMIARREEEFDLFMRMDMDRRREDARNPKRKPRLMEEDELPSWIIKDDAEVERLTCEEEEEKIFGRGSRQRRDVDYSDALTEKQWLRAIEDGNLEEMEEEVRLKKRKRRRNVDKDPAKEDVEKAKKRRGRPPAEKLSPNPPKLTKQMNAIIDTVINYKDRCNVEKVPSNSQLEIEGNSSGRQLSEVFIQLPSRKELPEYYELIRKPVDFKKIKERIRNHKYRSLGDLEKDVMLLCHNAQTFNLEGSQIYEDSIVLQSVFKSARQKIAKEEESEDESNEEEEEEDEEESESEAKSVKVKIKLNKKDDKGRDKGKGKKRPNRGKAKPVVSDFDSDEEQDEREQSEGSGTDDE

Take a look at these entries with their results.
Cc1ncsc1-c1ccc([C@@H](C)NC(=O)[C@@H]2C[C@@H](O)CN2C(=O)[C@@H](c2cc(OCCN3CCC(O[C@H]4C[C@H](Oc5cc(N6C7CCC6CN(c6cc(-c8ccccc8O)nnc6N)C7)ccn5)C4)CC3)no2)C(C)C)nn1 [compound 443]	> 30 nM
Cc1cc([C@@H](C(=O)N2C[C@H](O)C[C@H]2C(=O)N[C@@H](C)c2ccc(-c3scnc3C)cc2)[C@@H](C)COCCCCOc2cc(N3C4CCC3CN(c3cc(-c5ccccc5O)nnc3N)C4)ccn2)on1 [compound 431]	< 2.5 nM
CC(C)[C@H](C(=O)N1C[C@H](O)C[C@H]1C(=O)N[C@@H](C)c1ccc(-c2c(F)cnn2C)cc1)c1cc(OCCN2CCN(CCOc3cc(N4C5CCC4CN(c4cc(-c6ccccc6O)nnc4N)C5)ccn3)CC2)no1 [compound 409]	> 30 nM

Consider the record given below.
Sure, the documented DC50 for Cc1ncsc1-c1ccc([C@H](C)NC(=O)[C@@H]2C[C@@H](O)CN2C(=O)C(c2cc(O[C@H]3C[C@H](N4CCC(O[C@H]5C[C@H](Oc6cc(N7C8CCC7CN(c7cc(-c9ccccc9O)nnc7N)C8)ccn6)C5)CC4)C3)no2)C(C)C)cc1 (stereo partly shown) [compound 411] is < 2.5 nM

Value source: patent US12539292B2
